# testedSystem: AR (Homo sapiens, UniProt P10275)
# Construct: endogenous in cells; host or cells: VCaP cells
# Sequence (P10275 1-920): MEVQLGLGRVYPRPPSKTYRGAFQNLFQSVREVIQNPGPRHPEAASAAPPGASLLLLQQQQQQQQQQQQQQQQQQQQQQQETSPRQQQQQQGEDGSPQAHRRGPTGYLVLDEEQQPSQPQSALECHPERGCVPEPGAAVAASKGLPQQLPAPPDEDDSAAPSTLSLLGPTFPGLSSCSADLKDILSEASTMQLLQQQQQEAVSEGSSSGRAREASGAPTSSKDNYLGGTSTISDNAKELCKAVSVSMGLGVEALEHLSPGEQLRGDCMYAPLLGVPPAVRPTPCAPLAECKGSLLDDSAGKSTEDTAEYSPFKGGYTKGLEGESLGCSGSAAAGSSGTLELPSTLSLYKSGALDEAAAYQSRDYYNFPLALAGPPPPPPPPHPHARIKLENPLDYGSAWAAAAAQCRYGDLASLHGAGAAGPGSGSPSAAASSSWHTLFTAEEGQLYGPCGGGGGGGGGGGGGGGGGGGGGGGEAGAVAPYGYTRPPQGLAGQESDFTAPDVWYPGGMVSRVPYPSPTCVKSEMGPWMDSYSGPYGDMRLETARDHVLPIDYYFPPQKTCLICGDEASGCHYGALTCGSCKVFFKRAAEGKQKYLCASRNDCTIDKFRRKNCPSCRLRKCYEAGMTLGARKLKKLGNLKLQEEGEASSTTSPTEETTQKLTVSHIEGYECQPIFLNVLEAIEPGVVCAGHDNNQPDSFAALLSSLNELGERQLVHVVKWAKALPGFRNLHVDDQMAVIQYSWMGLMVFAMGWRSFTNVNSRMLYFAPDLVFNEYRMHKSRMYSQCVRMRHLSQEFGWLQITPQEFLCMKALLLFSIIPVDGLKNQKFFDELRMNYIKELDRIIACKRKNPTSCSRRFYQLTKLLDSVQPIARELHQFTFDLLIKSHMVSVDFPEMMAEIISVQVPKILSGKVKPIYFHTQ
# assayMethodText: VCAP AR Degradation Assay
# Format: cell-based
# settings: class symbols *, **
resultType: Y (AR degradation efficiency, % of DMSO control)

compound="C[C@@H]1CN(CCOc2ccc(N3C(=S)N(c4ccc(C#N)c(C(F)(F)F)c4)C(=O)C3(C)C)cc2CC(F)F)CCN1CC(=O)Nc1cc(Cl)cc(NC2CCC(=O)NC2=O)c1 (stereo partly drawn) [Example 152]" result="* (0<Y<=25%)"
compound="C[C@@H]1CN(CCOc2ccc(N3C(=S)N(c4cnc(C#N)c(C(F)(F)F)c4)C(=O)C34CCC4)cc2C2CC2)C[C@H](C)N1CC(=O)Nc1cccc(NC2CCC(=O)NC2=O)c1 (stereo partly drawn) [Example 196]" result="* (0<Y<=25%)"
compound="CCc1cc(N2C(=S)N(c3ccc(C#N)c(C(F)(F)F)c3)C(=O)C2(C)C)ccc1OCCN1CCN([C@@H](C)C(=O)Nc2cccc(NC3CCC(=O)NC3=O)c2)[C@H](C)C1 (stereo partly drawn) [Example 281]" result="* (0<Y<=25%)"

Source listed as patent US12404241B2.
